Data provenance: ChEMBL document CHEMBL3988442

Species: Homo sapiens
Assay: To identify inhibition of the IFN signalling (Jak-Stat) pathway via expression of an eGFP reporter gene under the control of an IFN-stimulated response element (ISRE) containing MxA promoter.
Format: functional
Set-up: scale not given: direction of the effect not stated beside the values
Settings: 30 µM
MEASURED ENDPOINT: Percent Effect (%)
Form entry: value (%) — number only.

Example entries begin here.
Cn1ccnc1CN1CCN(c2ccc(C#N)cn2)CC1 :: 7.75
O=C(c1ccc[nH]1)N1CCN(CC2CCOc3ccccc3C2)CC1 (centres undefined) :: -2.27
CCn1cc(NC(=O)NCC(C)O)cn1 (centres undefined) :: 1.36

From here, focus on the item given below.
Value lookup for Percent Effect; key = `COCCN(Cc1nc2c(cnn2C)c(=O)[nH]1)Cc1ccco1`
4.47

----------
Target: Protein translocase subunit SecA (Escherichia coli (strain K12))
Experiment: Assay to Identify E. coli SecA ATPase Inhibitors
Format: functional
Set-up: scale not given: direction of the effect not stated beside the values
Details: 30 µM
Measured potencies and affinities stand elsewhere.
MEASURED ENDPOINT: Percent Effect (%)
Reply numerically in %, unit not repeated.

Example entries and their recorded answers appear below.
CCCn1nc2c(cc1=O)CN(CCCN1CCCC1=O)CC2 :: -3.62
CCOc1cc(C(=O)N2CCCC(c3cc(C(N)=O)[nH]n3)C2)ccn1 (stereo unspecified) :: -4.21

Value lookup for Percent Effect; key = CCN1CC2(CC1=O)CN(C(C)=O)CCN(C(=O)c1ccco1)C2 (stereo unspecified)
-1.61

Need Percent Effect of OCC1CCCN1c1cc(N2CCc3ccccc3C2)ncn1 (stereo unspecified) , thanks.
-5.73

What does the record list as Percent Effect for `CS(=O)(=O)N1CCOCC2(CCN(C(=O)c3cccnc3)CC2)C1` ?
0.0699

I have this compound here, Cc1nn(C)c(C)c1C1CCCN1Cc1noc(C2CC2)n1 (stereo unspecified) , and I need its recorded Percent Effect.
2

----------
Target: Sialic acid-binding Ig-like lectin 9 (Homo sapiens)
Test: Hs-Siglec9 ALPHAscreen SOP 20170721
Set-up: scale not given: direction of the effect not stated beside the values
Conditions: 10 µM
MEASURED ENDPOINT: Percent Effect (%)
The reply should be a number in %, with the unit left off.

CCC(=O)N1CCC(c2nnc(Cn3cncn3)n2C2CC2)CC1 :: 12.9
Cc1nc(Nc2ncccn2)cc(C2CCCN2CC(C)C)n1 (stereo unspecified) :: -0.413
O=c1oc(-c2ccc(F)cc2)nn1CN1CCN(C2CCCC2)CC1 :: -0.647
CCc1nc(CC(=O)N2CCOCC2c2ncon2)cs1 (stereo unspecified) :: -2.13
CC(C)S(=O)(=O)N1CCC(c2cc3n(n2)[C@@H](C(F)(F)F)C[C@@H](C)N3)C1 (stereo partly specified) :: 0.653

Request the reported Percent Effect associated with `O=C(NCc1ccncc1)N(Cc1ccccc1F)C1CC1`
29.6

So what's the measured Percent Effect for this one? COc1ccccc1CNC(=O)N1CCCC(NS(C)(=O)=O)C1 (stereo unspecified)
-17.1

Which measured Percent Effect value corresponds to `CN(c1ccc(F)c(F)c1)S(=O)(=O)c1cc(C(=O)O)cs1` ?
1.81

Name the reported Percent Effect value associated with the compound O=C(Cc1ccc(-n2cccn2)cc1)N1CCCC(n2cccn2)C1 (stereo unspecified)
-18.3

Look at this compound and give its reported Percent Effect. `O=C(Cn1ccc2c(Cl)cccc21)N[C@@H](C(=O)O)c1ccccc1`
0.703
